Hello, the source for this data is the nanobody polyreactivity screen of Harvey et al. (2022), in case you need it.

- Assay Remarks: yeast display, Sf9 membrane polyspecificity reagent, FACS + sequencing; frameworks hold sequencing errors
Observable: polyreactivity (PSR sort gate)

Some sequences with known polyreactivity (PSR sort gate) results, for comparison:
Sequence Content	polyreactivity (PSR sort gate)
QVQLEESGGGLVQAGGSLRLSCAASGFTFSGYDMGWYSPAPGKERELVAGISYGGVSTTYADSVKGRFTISRDNAKNTVYVQMNSLKPEDTAVYYCNAEWTSFDWGQGTQVTVSS	low polyreactivity
QVQLVESGGGLVQAGGSLRLICAASGSTYRGYAMGWYRQAPGKERELVAAISYISGGTYYADSVKGRFTISRDNAKYTVYLQMNSLKPEDTAVYYCAVGSHSRSSNSYYYWGQGTQVTVSW	low polyreactivity
QVQLEESGGSLVQAAGSLRLSCAASGSIFSPYAMGWYRQAPGKERELVAAITWRGGTFYADSVKGRFTISRDNAKNTVDLQMNSLKPEDTAVYYCNARFGQTVKGTYGRYYYWGQGTHVTVSS	high polyreactivity
QVQLVESGGGLVQAGGSLRLSCAASGFTFAGNAMGWDRPAPGKERELVAGISRRGGNTYYADSVKGRFTISRDTAKNTVYLQMNRLKPEDTAVYYCARYSSSYWGQGTQVTVSS	high polyreactivity

Kindly consider the entry below.
So for QVQLVESGGGLVQAGGSLRLSCAASGRTFATNAMGWYRQAPGKERELVAAISRRGASTYYADSVKGRFTISRDNAKNTVYLQMNSLKPEDTAVYYCAARQYIRGARIYDYWGQGTQVTVSS , the logged polyreactivity (PSR sort gate) turned out to be high polyreactivity
